# Tested on: HCT-15
Readings of GI50 for the listed molecules

Reference set, count: 6
molecule: COc1ccc(OC(C)C(=O)O)c2c1CCCC2=O (stereo unspecified)
GI50: > 100 µM
--
molecule: Cc1ccc(N2C(=O)/C(=C/c3ccc(N(CCC#N)CCC#N)cc3)N=C2COc2ccc(Cl)cc2Cl)cc1
GI50: > 100 µM
--
molecule: Cc1cc2c(c(O)c1-c1c(C)cc(O)c3c1C(=O)C=CC3=O)C(=O)C=CC2=O
GI50: 1.52 µM
--
molecule: Cc1cc(OCc2nnc3n2N=C(c2cc(F)c(Cl)cc2Cl)/C(=C/c2ccc(Cl)cc2)S3)ccc1Cl
GI50: 19.7 µM
--
molecule: Nc1ccccc1CC(O)C(=O)O (stereo unspecified)
GI50: > 100 µM
--
molecule: O=C1Nc2ccccc2/C1=N/N=c1\cccc[nH]1
GI50: 30.3 µM

[Q] What measured GI50 goes with COc1nc(=O)n(C2CC(N=[N+]=[N-])C(CO)O2)cc1C (stereo unspecified) ?
[A] > 100 µM

[Q] Next entry: N#CC[N+]1(Cc2ccccn2)CCCC1.O=S(=O)([O-])c1ccccc1
[A] > 100 µM

[Q] Next entry: CCN(CC)C(=S)SS(=O)(=O)c1ccc(C)cc1
[A] 36.7 µM

[Q] Next entry: O=C1CCC(=O)C(C(=O)CCC(=O)Nc2ccc(Cl)cc2)C1 (stereo unspecified)
[A] > 100 µM

[Q] Next entry: O=c1c2cc(S(=O)(=O)Nc3ccccc3Cl)ccc2ncn1NS(=O)(=O)c1ccc(Br)cc1
[A] > 37.5 µM

###

# Test system: HOP-18
# experimental protocol: NCI tumour cell line growth inhibition, 48 h
The source made the active and inactive calls. Cut-off read from the data, not from the text of the source: active = GI50 up to about 1.1 µM and inactive = higher.
# output must be one of label 1 (active), label 0 (inactive)

[Q] Record lookup: outcome of this test for c1ccc(-c2nnc(-c3nn(-c4ccccc4)c4nc5ccccc5nc34)o2)cc1 ?
[A] label 0

###

# System: NCI-H23
# experimental protocol: NCI tumour cell line growth inhibition, 48 h
Calls of active or inactive are those of the source. No stated cut-off is given here; in the data, active = GI50 up to about 1.1 µM and inactive = higher.
Readings of GI50 for the listed compounds

Reference set, count: 10
compound: CC(C)(c1ccc(OC#N)cc1)c1ccc(OC#N)cc1
metric name: GI50
result: > 100 µM (inactive)
//
compound: O=C1C(Cl)=CC2(C=C1Cl)CCNC1=C2C(=O)c2nc[nH]c2C1=O
metric name: GI50
result: 27.2 µM (inactive)
//
compound: Nc1ccccc1CC(O)C(=O)O (stereo unspecified)
metric name: GI50
result: > 100 µM (inactive)
//
compound: C=CCOc1ccc(C2(c3ccc(OCC=C)cc3)C(=O)Nc3ccccc32)cc1
metric name: GI50
result: > 10 µM (inactive)
//
compound: CCOc1ccccc1/N=N/c1c(-c2ccccc2)nn(C(=O)CC(=O)Nc2cccc(C)c2)c1-c1ccccc1
metric name: GI50
result: > 100 µM (inactive)
//
compound: c1ccc(C2=NN3CN(N2)c2ccccc2OCCCOc2ccccc23)cc1
metric name: GI50
result: > 100 µM (inactive)
//
compound: C=CCNc1nc2c(N)ncnc2s1
metric name: GI50
result: > 10 µM (inactive)
//
compound: COc1cc2c(cc1OC)C(SC)C(=O)N(Cc1cccc(OC)c1OC)CC2 (stereo unspecified)
metric name: GI50
result: 2.25 µM (inactive)
//
compound: O=C1OC(c2ccccc2)=N/C1=C\c1c(O)cc(O)cc1O
metric name: GI50
result: > 100 µM (inactive)
//
compound: O=C(CBr)c1ccc2cc(Br)c3ccccc3c2c1
metric name: GI50
result: 14.7 µM (inactive)

[Q] What measured GI50 goes with NCCNCCNc1ccc(NCCNCCN)c2c1C(=O)c1c(O)ccc(O)c1C2=O ?
[A] > 100 µM (inactive)

###

# System: T47D
# experimental protocol: NCI tumour cell line growth inhibition, 48 h
Activity calls are given as the source filed them. Cut-off read from the data, not from the text of the source: active = GI50 up to about 1.1 µM and inactive = higher. Where a SMILES comes first, the peptide text is derived from it. [ ]: non-standard residue; d: D form. The star is where a group is joined. Phe(4-NO2) = N[CH](Cc1ccc([N+](=O)[O-])cc1)C(=O)O; Boc = CC(C)(C)OC(=O)*; OtBu = CC(C)(C)O*
metric name: GI50

Reference set, count: 8
compound: COC(=O)C(Cc1ccc([N+](=O)[O-])cc1)NC(=O)C(CC(=O)OC(C)(C)C)NC(=O)OC(C)(C)C (centres undefined) (Boc-Asp(OtBu)-[Phe(4-NO2)]-OMe; configuration not given here)
GI50: > 100 µM (inactive)
//
compound: Cc1cc(=O)[nH]c(-n2[nH]c3c(c2=O)CCCC3)n1
GI50: > 100 µM (inactive)
//
compound: O=C(c1ccccc1)c1ccc(N2C(=O)/C(=C/c3ccccc3S)N=C2c2ccccc2)c(N2C(=O)/C(=C/c3ccccc3S)N=C2c2ccccc2)c1
GI50: 43.3 µM (inactive)
//
compound: COc1cc(/C=C/c2ccc(S(N)(=O)=O)cc2)cc(OC)c1
GI50: 8.18 µM (inactive)
//
compound: c1ccc2c3c(c(N4CCNCC4)nc2c1)CCCC3
GI50: 13.5 µM (inactive)
//
compound: Nc1cccc(/C=C/CN2CCN(CCOC(c3ccccc3)c3ccccc3)CC2)c1
GI50: 8 µM (inactive)
//
compound: Cc1ccc2c(c1C)CC1(Cc3c(C)ccc(C)c3C1=O)C2=O (centres undefined)
GI50: > 100 µM (inactive)
//
compound: O=C(Nc1ccc([N+](=O)[O-])cc1)Nn1cnnc1
GI50: 24 µM (inactive)

We next turn to a different compound, shown below.
[Q] What measured GI50 goes with O=[N+]([O-])c1ccc2nc(-c3ccccn3)c(-c3ccccn3)nc2c1 ?
[A] > 100 µM (inactive)

###

# System: ACHN
# experimental protocol: NCI tumour cell line growth inhibition, 48 h
The source made the active and inactive calls. Cut-off read from the data, not from the text of the source: active = GI50 up to about 1.1 µM and inactive = higher.
# output must be one of active, inactive

[Q] Record lookup: outcome of this test for NC1=NC(=O)/C(=C2\CCNC(=O)c3[nH]c(Br)cc32)N1 [HYMENIALDISINE] ?
[A] inactive

[Q] Next entry: O=[N+]([O-])c1c(/C=N/Nc2ccccc2)oc(-c2ccc3c(c2)OCO3)c1-c1ccc2c(c1)OCO2
[A] inactive

[Q] Next entry: COc1ccc(C=C2C(C)=NN(c3cccc(Cl)c3)C23C(Cl)C(=O)N3c2nc3ccccc3s2)cc1 (stereo unspecified)
[A] inactive

[Q] Next entry: CC(=O)OCCN1c2ccccc2Sc2cnccc21
[A] inactive

[Q] Next entry: CCOC(=O)c1c(N2CCOCC2)ncn(-c2cccc(Cl)c2)c1=O
[A] inactive

[Q] Next entry: O=C(c1ccccc1)c1nnn(Cc2ccccc2Cn2nnc(C(=O)c3ccccc3)c2C(=O)c2ccccc2)c1C(=O)c1ccccc1
[A] inactive

[Q] Next entry: O=C(Nc1ccc([N+](=O)[O-])cc1)Nn1cnnc1
[A] inactive

[Q] Next entry: CC1=C(C(=O)Nc2ccccc2)C(c2cc(Cl)cc(Cl)c2)C(C(=O)Nc2ccccc2)=C(C)N1
[A] inactive

[Q] Next entry: O=c1[nH]nc(Cc2ccc(Cl)cc2)n1O
[A] inactive

[Q] Next entry: O=C(CBr)c1ccc2cc(Br)c3ccccc3c2c1
[A] inactive

[Q] Next entry: CC(C)(CN)SCc1ccccc1
[A] inactive

[Q] Next entry: Nc1ncnc2c(C3OC(CO)C(O)C3O)scc12 (stereo unspecified)
[A] active

[Q] Next entry: CC(C)(CO)CNc1cc(=O)[nH]c(N)n1
[A] inactive

[Q] Next entry: O=C1C(=C(I)I)c2ccccc2-c2ccccc21
[A] inactive

[Q] Next entry: CC(=O)NC1C(OCc2ccccc2)OC(COC(=O)CCCCCNc2ccc([N+](=O)[O-])c3[nH]c4ccc(O)cc4c(=O)c23)C(O)C1OC(C)C(=O)N[C@@H](C)C(=O)N[C@H](CCC(=O)OCc1ccccc1)C(N)=O (stereo partly specified)
[A] inactive

[Q] Next entry: CCNC(=O)Nc1ccccn1
[A] inactive

[Q] Next entry: Clc1ccc(C2=CC(c3ccccc3)N3C(=N[C@H]4CCCC[C@@H]43)N2)cc1 (stereo partly specified)
[A] inactive

[Q] Next entry: O=[N+]([O-])c1ccc(-n2nnc(C3=NCCN3)c2-c2ccc(Cl)cc2)cc1
[A] inactive

[Q] Next entry: CSc1nnnc2ccccc12
[A] inactive

[Q] Next entry: Cc1c(C(=O)CC(=O)C(=O)NC2C3CC4CC(C3)CC2C4)[n+]([O-])c2ccccc2[n+]1[O-] (stereo unspecified)
[A] inactive

[Q] Next entry: CC1=CC(=O)N2[C@H](OC[C@@H]2C(C)C)O1
[A] inactive

[Q] Next entry: COC(=O)c1cc(C(=CCC[C@H]2CC[C@@]3(C)C(CCC4C3CC[C@@]3(C)C4CC[C@@H]3C(C)CCCC(C)C)C2)c2cc(Cl)c(O)c(C(=O)OC)c2)cc(Cl)c1O (stereo partly specified)
[A] inactive

[Q] Next entry: C=CC1(C)CC(=O)C2(O)C(C)(O1)C(OC(C)=O)C(O)C1C(C)(C)CCC(O)C12C (stereo unspecified)
[A] inactive

[Q] Next entry: CC1(C)OC2[C@@H](CO[C@@]3([C@H]4OC(C)(C)O[C@@H]4CO)OC(C)(C)O[C@@H]23)O1 (stereo partly specified)
[A] inactive

[Q] Next entry: COc1ccc(/C=C/C(=O)c2c(-c3ccccc3)nn(C)c(=O)c2N2CCOCC2)cc1
[A] inactive

[Q] Next entry: C=CCNc1nc2c(N)ncnc2s1
[A] inactive

[Q] Next entry: O=C1c2ccccc2N2OC3C4CCC(C4)C3C12c1ccccc1 (stereo unspecified)
[A] inactive

[Q] Next entry: CC(=O)C1C(=O)C(=O)N(c2cccc([N+](=O)[O-])c2)C1=O (stereo unspecified)
[A] inactive

[Q] Next entry: Cc1ccccc1-c1c(N)nc(N)nc1C(=O)Nc1nccs1
[A] inactive
